System Under Test: thrombin mutant R93A (Homo sapiens, UniProt P00734, R452A)
Construct: a group of thrombin mutants containing replacement of either Arg or Lys present in exosite 2 to Ala
Assay Details: Inhibition of thrombin mutant R93A
Test Settings: R93A, pH 7.4, 25 °C
Measurement Type: IC50 (µM)
Could you give me the number in µM? Just the number is fine.

So what IC50 did O=c1oc2cc(OCCCCn3cc(COc4ccc(-c5c(-c6ccccc6)c6cc(Cl)cc(Cl)c6oc5=O)cc4)nn3)ccc2c(-c2ccccc2)c1-c1ccc(OS(=O)(=O)O)cc1 [3g] get with thrombin mutant R93A (Homo sapiens, UniProt P00734, R452A)?
0.154

----------
System Under Test: thrombin mutant R97A (Homo sapiens, UniProt P00734, R456A)
Construct: a group of thrombin mutants containing replacement of either Arg or Lys present in exosite 2 to Ala
Assay Details: Inhibition of thrombin mutant R97A
Test Settings: pH 7.4, 25 °C
Measurement Type: pIC50
The meaning of pIC50 here: minus log10 of the concentration in molar units.

Report pIC50 for `O=c1oc2cc(OCCCCn3cc(COc4ccc(-c5c(-c6ccccc6)c6cc(Cl)cc(Cl)c6oc5=O)cc4)nn3)ccc2c(-c2ccccc2)c1-c1ccc(OS(=O)(=O)O)cc1` please.
6.42

----------
System Under Test: fluorescein-labeled (f FPRCK-) thrombin (Homo sapiens)
Construct: fluorescein-labeled (f FPRCK-) human thrombin
Assay Details: Thermodynamic affinity by fluorescence titration
Test Settings: pH 7.4, λEX 490 nm, λEM 525 nm, quadratic binding equation
Procedure: Affinity studies were performed in triplicate and conducted using quartz cuvettes. […] Fluorescence intensities were monitored by excitation at 490 nm and emission at 525 nm using slit widths of 0.5 mm. The KD of 3g–thrombin complex was calculated using the quadratic binding equation (equation 4) in which ∆F is the change in fluorescence from the formation of the thrombin-ligand complex with each addition of 3g. […]
Measurement Type: pKd
The meaning of pKd here: minus log10 of the concentration in molar units.

Report pKd for O=c1oc2cc(OCCCCn3cc(COc4ccc(-c5c(-c6ccccc6)c6cc(Cl)cc(Cl)c6oc5=O)cc4)nn3)ccc2c(-c2ccccc2)c1-c1ccc(OS(=O)(=O)O)cc1 [3g] please.
6.84

----------
System Under Test: thrombin mutant K236A (Homo sapiens, UniProt P00734, K611A)
Construct: a group of thrombin mutants containing replacement of either Arg or Lys present in exosite 2 to Ala
Assay Details: Inhibition of thrombin mutant K236A
Test Settings: pH 7.4, 25 °C
Measurement Type: pIC50
The meaning of pIC50 here: minus log10 of the concentration in molar units.

Report pIC50 for `O=c1oc2cc(OCCCCn3cc(COc4ccc(-c5c(-c6ccccc6)c6cc(Cl)cc(Cl)c6oc5=O)cc4)nn3)ccc2c(-c2ccccc2)c1-c1ccc(OS(=O)(=O)O)cc1` please.
6.28

----------
System Under Test: thrombin mutant R165A (Homo sapiens, UniProt P00734, R533A)
Construct: a group of thrombin mutants containing replacement of either Arg or Lys present in exosite 2 to Ala
Assay Details: Inhibition of thrombin mutant R165A
Test Settings: pH 7.4, 25 °C
Measurement Type: pIC50
The meaning of pIC50 here: minus log10 of the concentration in molar units.

Report pIC50 for O=c1oc2cc(OCCCCn3cc(COc4ccc(-c5c(-c6ccccc6)c6cc(Cl)cc(Cl)c6oc5=O)cc4)nn3)ccc2c(-c2ccccc2)c1-c1ccc(OS(=O)(=O)O)cc1 [3g] please.
6.52
